Biological target: GST-CIB1 : F-scrambled peptide (Homo sapiens, UniProt Q99828)
Construct: made in house; host or cells: BL-21 plus RIL cells (E. coli)
Sequence (Q99828 1-191): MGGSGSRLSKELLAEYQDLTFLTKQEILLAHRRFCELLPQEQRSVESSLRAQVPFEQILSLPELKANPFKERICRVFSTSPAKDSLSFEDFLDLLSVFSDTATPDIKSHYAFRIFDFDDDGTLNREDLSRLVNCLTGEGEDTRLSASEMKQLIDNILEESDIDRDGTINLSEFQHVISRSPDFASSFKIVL
Test: FP scrambled-peptide counter screen, 384-well format
Assay type: binding
Details: F-scrambled peptide
Parameter: 384-well COUNTERSCREEN Efficacy (%). Scope: all listed entries.
Expressed in %, but write only the number.

Answered examples (3):
O=C(Nc1nc(-c2ccccc2)cs1)c1ccncc1NS(=O)(=O)c1ccccc1Cl.O=C(O)C(F)(F)F [NCGC00344943-01]
31
COc1ccccc1S(=O)(=O)Nc1cnccc1C(=O)Nc1nc(-c2ccccc2)cs1.O=C(O)C(F)(F)F [NCGC00344905-01]
44
COc1cc(/C=C2/N=C(c3ccccc3)OC2=O)c(F)cc1OCc1ccccc1 [NCGC00168015-01]
32

Let us move to another entry and its 384-well COUNTERSCREEN Efficacy (%).
Documented 384-well COUNTERSCREEN Efficacy (%) of O=C(O)C(F)(F)F.OCc1ccc(-c2ccc3ncnc(NCc4nccs4)c3c2)o1 [NCGC00238383-01] : 47

----------
Biological target: CIB1 and αIIb interaction (CIB1-GST : F-αIIb peptide) (Homo sapiens, UniProt Q99828)
Construct: made in house; host or cells: BL-21 plus RIL cells (E. coli)
Test: FP assay, 1536-well qHTS format (primary and confirmatory screen)
Type: binding
Settings: qHTS primary screen hits, Table S2; read-out: IC50
Under this convention, 1 denotes IC50 strictly below 30 µM and 0 denotes IC50 at or above 30 µM.

Below are worked cases with known answers.
O=c1cc(-c2ccccc2)oc2cc(O)c(O)c(O)c12
0
COc1ccccc1-c1cccc(-c2c(O)c3cc(C#N)c(Cl)cc3[nH]c2=O)c1
0
O=[N+]([O-])c1cnc(Sc2nnc(O)n2-c2ccc3c(c2)OCCO3)s1
1
Cc1cc(C)nc(NC(=S)N2CCN(c3cccc4ccncc34)CC2)c1.O=C(O)C(F)(F)F
0

Attention now shifts to the item below.
Please state whether IC50 is below 30 µM for `Nc1ccc2c3c(cccc13)C(=O)NC2=O`
1

----------
Listed below: 384-well SCREEN Efficacy (%) values for each entry.
Target: CIB1 and αIIb interaction (GST-CIB1 : F-αIIb peptide) (Homo sapiens, UniProt Q99828)
Construct: made in house; host or cells: BL-21 plus RIL cells (E. coli)
Assay: FP assay, 384-well format (screen)
Assay type: binding
Design: concentration or dose not given beside the values
Conditions: F-αIIb peptide
Write down the numeric answer in % and omit the unit.

In the examples that follow, each entry is paired with its recorded 384-well SCREEN Efficacy (%).
Cc1ccc(S(=O)(=O)Nc2cnccc2C(=O)Nc2nc(-c3ccccc3)cs2)cc1.O=C(O)C(F)(F)F
29
CC(=O)N1CCN(c2ccc(OCc3nn(C)c(C)c3-c3cccc4c(CCCOc5cccc6ccccc56)c(C(=O)O)n(Cc5cccnc5)c34)cc2)CC1
52
N#Cc1ccc(N2N=C3c4ccc(C(=O)O)cc4CC[C@@H]3[C@@H]2C2CCCC2)cc1Cl
-15
O=C(O)C(F)(F)F.OCc1ccc(-c2ccc3ncnc(NCc4cccs4)c3c2)o1
72
CCN(CC)C(=S)SSC(=S)N(CC)CC [NCGC00016000-13, disulfiram, reference compound]
95

Given item `Cc1ccccc1S(=O)(=O)Nc1cnccc1C(=O)Nc1nc(-c2ccccc2)cs1.O=C(O)C(F)(F)F` , the value recorded as its 384-well SCREEN Efficacy (%) is 35

// sample O=C(O)C1=NC(C(=O)O)CC(/C=C/N2c3cc(O)c(OC4OC(CO)C(O)C(O)C4O)cc3CC2C(=O)O)=C1 (centres unmarked) , its 384-well SCREEN Efficacy (%) was 43

Record `Cc1ccc(C)n1-c1cccc(C(=O)O)c1.O=C(O)C(F)(F)F` . Reported 384-well SCREEN Efficacy (%): 30

----------
Target: GST-CIB1 : F-scrambled peptide (Homo sapiens, UniProt Q99828)
Construct: made in house; host or cells: BL-21 plus RIL cells (E. coli)
Test: FP scrambled-peptide counter screen, 1536-well format
Assay type: binding
Conditions: scrambled-peptide counterscreen, qHTS curve class
metric: COUNTERSCREEN Curve Class
The answer should be written as a number, with no unit following it.

Please review the entries below; each comes with its answer.
CCCCCCCCOc1ccccc1C(=O)Nc1ccc(C(=O)OCC[N+](C)(CC)CC)cc1.[Br-]
4
O=C(O)C(F)(F)F.OCc1ccc(-c2ccc3ncnc(NCc4nccs4)c3c2)o1
4

COUNTERSCREEN Curve Class reading for `CCc1ccc(S(=O)(=O)Nc2cnccc2C(=O)Nc2nc(-c3ccccc3)cs2)cc1.O=C(O)C(F)(F)F` : 4

Record `CC(C)=CCC[C@]1(C)C=Cc2c(O)c3c(c(CC=C(C)C)c2O1)O[C@]12C(=C[C@@H]4CC1C(C)(C)O[C@@]2(C/C=C(/C)C(=O)O)C4=O)C3=O` , field COUNTERSCREEN Curve Class: 1.4

Noted for `CCc1oc2ccccc2c1C(=O)c1cc(I)c(O)c(I)c1` : its COUNTERSCREEN Curve Class reads 1.4

Kindly note the recorded COUNTERSCREEN Curve Class for `CCCC1CCN(C(=O)COC(=O)c2ccc(S(C)(=O)=O)c([N+](=O)[O-])c2)CC1` , which is 4

Entry under test: `O=C(O)c1cccc(CN2C(=O)/C(=C(\c3ccccc3)c3ccc(Cl)cc3)c3ccccc32)c1` . Its COUNTERSCREEN Curve Class was 4

----------
Overview of recorded COUNTERSCREEN Efficacy (%) for various molecules
Target: GST-CIB1 : F-scrambled peptide (Homo sapiens, UniProt Q99828)
Construct: made in house; host or cells: BL-21 plus RIL cells (E. coli)
Assay: FP scrambled-peptide counter screen, 1536-well format
Type: binding
Conditions: counterscreen
// units = %; emit number, no label

Worked set:
O=C(O)C(F)(F)F.O=C1CCC2=C1C1(CCCC1)N=C(Nc1nc3ccccc3o1)N2
-10
O=C(O)C(F)(F)F.O=C1Nc2ccccc2/C1=N/NC(=S)Nc1cccnc1
-17
NC(=O)c1ncn([C@@H]2O[C@H](CO)[C@@H](O)[C@H]2O)c1O
0
NC(=O)c1ccc(O)c2ncccc12
-10
Cc1cc(NS(=O)(=O)c2ccc(NC(=O)Cc3ccc(F)c(Cl)c3)cc2)no1.O=C(O)C(F)(F)F
-17
Cc1nc(C(=O)NCC(=O)O)c(O)c2ccc(Oc3ccccc3)cc12
0
O=[N+]([O-])c1ccc(O)c2ncccc12
-13

The recorded COUNTERSCREEN Efficacy (%) for entry CC(OC(=O)c1ccc(S(C)(=O)=O)c([N+](=O)[O-])c1)C(=O)NC1C2CC3CC(C2)CC1C3 (centres unmarked) equals -20

----------
Molecular target: GST-CIB1 : F-scrambled peptide (Homo sapiens, UniProt Q99828)
Construct: made in house; host or cells: BL-21 plus RIL cells (E. coli)
Test: FP scrambled-peptide counter screen, 1536-well format
Format: binding
Settings: Table S3, counterscreen, qHTS curve class; a negative sign marks inhibitory curves
metric: Curve Class (counterscreen)
Reply with the value as a number alone.

Memo: `O=C(O)C(F)(F)F.O=C1Nc2ccccc2/C1=N/NC(=S)Nc1ccc(Oc2ccccc2)cc1` , reported Curve Class (counterscreen): -1.4

For record `O=C(O)C(F)(F)F.O=C1Nc2ccccc2/C1=N/NC(=S)NCc1ccccc1` the listed Curve Class (counterscreen) is 4

response.value for `O=C(O)C(F)(F)F.O=S(=O)(Nc1nccs1)c1ccc(Nc2nc(-c3ccccc3)cs2)cc1` (field: Curve Class (counterscreen)) = -2.1

response.value for `O=C(NNC(=O)c1nc2ccccc2[nH]1)OCc1ccccc1` (field: Curve Class (counterscreen)) = 4

Lab note: O=C(Cc1ccccc1)NC(c1ccco1)c1cc(Cl)c2cccnc2c1O.O=C(O)C(F)(F)F (centres unmarked) gave Curve Class (counterscreen) of 3

Lab note: measured Curve Class (counterscreen) of COc1ccc2[nH]c([S+]([O-])Cc3ncc(C)c(OC)c3C)nc2n1 (centres unmarked) was -2.2

Consider `O=C(O)C(F)(F)F.O=C1Nc2ccccc2/C1=N/NC(=S)Nc1ccc(O)cc1` . Its measured Curve Class (counterscreen) is -1.2

Looking up `CC(O)C(=O)O.CCOc1ccc2nc3cc(N)ccc3c(N)c2c1.O` , I see its Curve Class (counterscreen) listed as -2.1

Reference source: paper PMC11249646
